Target: HLA-A*24:02
Assay: IEDB peptide-MHC binding, cellular MHC/competitive/fluorescence; bounds were set here for any values at or beyond the usual limits of such assays
Conditions: source organism: Human herpesvirus 5 strain AD169
RECORDED_ENDPOINT: pIC50
Value format note: pIC50 is -log10 of concentration (mol/L); just state the number.

Quick check: pIC50 of `VYALPLKML` ?
5.12

----------
Molecular target: HLA-A*03:01
Assay: IEDB peptide-MHC binding, purified MHC/competitive/radioactivity; filed as Kd, often an IC50 or EC50 that approximates it; bounds were set here for any values at or beyond the usual limits of such assays
Conditions: source organism: SARS coronavirus Tor2
# binning rule on Kd: bin 0 (below 300 nM), bin 1 (300 nM to below 2000 nM), bin 2 (2000 nM or more)

State the class of the sequence shown: `AMDEFIQRY`
bin 1

Classify this sequence: `NAFNCTFEY`
bin 2

Kindly state the category for this sequence: `QQVVDADSK`
bin 2

Class? Entry: `SVKSFEIDK`
bin 1

Form: Item = `QMAPVSAMVR` ; Class = ?
bin 1

Please let me know in which category the item `NQLESKVSGK` belongs.
bin 2

Which bin should I file `AVHECFVKR` under?
bin 2

Class? Entry: `TAFQHQNSKK`
bin 1

Which bin should I file `FLYLYALIY` under?
bin 2

Input `ASGNLLLDK` ; output its category
bin 1

For the record `LLFQLCTFTK` , report the class its Kd corresponds to.
bin 0

Given `SQASSRSSSR` , name the class its Kd places it in.
bin 2

Please classify: `LFCLLNRYFR`
bin 1

Any idea which band `AQPLPQRQK` is in?
bin 2

Which of the defined bands does the recorded Kd of `SASAFFGMSR` sit within?
bin 1

// bin(item) where item = `MQTMLFTMLR`
bin 0

Band for `SLRCGACIRR` ?
bin 0

Category of `IIMRCWLCWK` :
bin 0

Pick a category. Item: `VVSTGYHFR`
bin 0

Where would `RLISMMGFK` land among the classes by reported Kd?
bin 0

Tag the class for `VVQRCASNK`
bin 1

Category lookup for the sequence `MSYYCKSHK`
bin 0
